SUBJECT_OF_TEST: pooled human IgG
READOUT_TYPE: Enzyme Activity Endpoint Assay (purified): Fc (ng/µL)
Give the quantity in ng/µL, number only.

Q: What value of Enzyme Activity Endpoint Assay (purified): Fc has been reported for the following protein? PRT-157 (protein) MANQEIRYSEVTPYHVTSVWTKGVTPPEDFTQGEDVFHAPYKANQGWYDITKTFNGKDDLLCGAATAGNMLHWWFDQNKDQIKRYLEEHPEKQKINFNGEQMFDVKEAIDTKNHQLDSKLFEYFKEKAFPYLSTKHLGVFPDHVIDMFINGYRLSLTNHGPTPVKEGSKDPRGGIFDAVFTRGDQSKLLTSRHDFKEKNLKEISDLIKKELTEGKALGLSHTYANVRINHVINLWGADFDSNGNLKAIYVTDSDSNASIGMKKYFVGVNSAGKVAISAKEIKEDNIGAQVLGLFTLSTGQDSWNQTN
Ans: 198

Q: Follow-up item: PRT-228 (protein) MEVVEVWPYGQNPNGKTEILSQTEDSESLQRLRDIEDFQAEKKMQNVVYTKWLDGVDVKDHDFRKIVDGNIAYYATPLLNGRGFYDINKDFNRDSDKCAAAVAANMFHYWLDINRDNVDRFLRQNPEKHGIIELPDGQLKLSDFLNTYESDHGYRDKSKLFDFISNNFNGPVWTDKLLDNYINGYAYNYKYGRTIEDPTKNTSKINFFKEVFNEKILTNNHSIRNQNEFSDLLSEALYTGKAIGLSYGPAGLRHSLGHIISVWGADLDADGNVVAIYVTDSDDKKLTIGDERVGLKRYKISTDDENRLRLTAYEETHNTGGQIRGLWTLDTGKYAWADYFDKTEQTGTDQAEQLEHHHHHH
Ans: 583

Q: Also, PRT-668 (protein) MQITSVWTKGVTPLTPEQFRYNNYDVFHAPYLAGQGWYDITKAFDGKDNLLCGAATAGNMLHWWFDQNKTEIEAYLSKYPEKQKIIFNNQELFDLRKAINTKDSQTNSELFNYFRDKAFPNLSARQLGVMPDLVLDMFINGYYLNVFKTQSTDVNRPYQDKDKRGGIFDAVFNRGDQTKLLTARHDLKNKGLNDISTLIKQELSSGRALALSHTTANVSISHVINLWGADFNAEGNLEAIYVTDSDDDSNIGMKKYKVGINASGHVAISAKKIEGENIGAQVLGLFTLSSGKDIWQKLSLEHHHHHH please.
Ans: 0

Q: Likewise for PRT-133 (protein) MRNATEAYAKEVPHQITSVWTKGVTPLTPEQFRYNNEDVIHAPYLAHQGWYDITKTFDGKDNLLCGAATAGNMLHWWFDQNKTEIEAYLSKHPEKQKIIFNNQELFDLKAAIDTKDSQTNSQLFNYFRDKAFPNLSARQLGVMPDLVLDMFINGYYLNVFKTQSTDVNRPYQDKDKRGGIFDAVFTRGDQTTLLTARHDLKNKGLNDISTIIKQELTEGRALALSHTYANVSISHVINLWGADFNAEGNLEAIYVTDSDANASIGMKKYFVGINAHGHVAISAKKIEGENIGAQVLGLFTLSSGKDIWQKLS ?
Ans: 207

Q: Please answer likewise for PRT-119 (protein) MRNATEAYAKETPKQITSVWTKGVTPPTPEQFRYNNEDVFHAPYVANQGWYDITKTFDGKDNLLCGAATAGNMLHWWFDQNKTEIEKYLSKHPEKQKIIFNNQELFDLKAAIDTKDSQTNSQLFNYFRDKAFPNLSARQLGVMPDLVLDMFINGYYLNVTKTQSTDVNRPYQDKDKRGGIFDAVFTRGDQTKLLTARHDLGNKSLNEISQLIKQELQEGKALALSHTYANVRISHVINLWGADFDAEGNLEAIYVTDSDSNASIGMKKYYVGVNSAGKVAISAKKIEGENIGAQVLGLFTLSSGKDIWQKLS
Ans: 96

Q: Would you kindly repeat that for PRT-81 (protein) MANQEIRYSEVTPSHVTSVWTKGVTPPADFTQGEDVFHAPYVANQGWYDITKTFNGKDNLLCGAATAGNMLHWWFDQNKEQIENYLKKHPEKQKIMFGDQELLDVRKVINTKDSQTNSALFNYFRDKAFPNLSARRLGVMPDLVLDMFINGYYLNLTKTQTTDVNRTYQTKDKRGGIFDAVFTRGDQSKLLTSRHDFKEKTLKEISDLIKQELTEGKALGLSHTYANVRINHVINLWGADFDSNGNLKAIYVTDSDSNASIGMKKYFVGVNSAGKVAISAKEITEDNIGAQVLGLFTLSTGKDQWNQTN ?
Ans: 67

Q: Lookup PRT-165 (protein) MANQEIRYSEVTPYHVTSVWTKGVTPPANFTQGEDVFHAPYVANQGWYDITKTFNGGDDLLCGAATAGNMLHWWFDQNKDQIKRYLEEHPEKQKINFNGEQMFDVKEAIDTKNSQTNSELFNYFKEKAFPYLSTKHLGVFPDHVIDMFINGYRLSLTNHGPTPVKEGSKDPRGGIFDAVFTRGDQSKLLTSRHDFKEKNLKEISDLIKKELTEGKALGLSHTYANVRINHVINLWGADFDSNGNLKAIYVTDSDSNASIGMKKYFVGVNSAGKVAISAKEIKEDNIGAQVLGLFTLSTGQDSWNQTN
Ans: 204

Q: Proceed to PRT-134 (protein) MRNATEAYAKEVPHQITSVWTKGVTPLTPEQFRYNNEDVIHAPYLAHQGWYDITKAFDGKDNLLCGAATAGNMLHWWFDQNKTEIEAYLSKHPEKQKIIFNNQELFDLKAAIDTKDSQTNSQLFNYFRDKAFPNLSARQLGVMPDLVLDMFINGYYLNVFKTQSTDVNRPYQDKDKRGGIFDAVFTRGDQTTLLTARHDLKNKGLNDISTLIKQELTEGRALALSHTYANVSISHVINLWGADFNAEGNLEAIYVTDSDANASIGMKKYFVGINAHGHVAISAKKIEGENIGAQVLGLFTLSSGKDIWQKLS
Ans: 174
